# Assay Overview: BSK_hDFCGF_Proliferation: Cell Proliferation Assessment in the BioMAP Diversity Plus: hDFCGF Assay (AID 2283059);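 further: curves fitted for both rise and fall of signal versus DMSO baseline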
# Measurement Context: primary human foreskin fibroblasts
Activity calls are given as the source filed them. How the source made its calls: active means hit-call score of the fitted dose curve at least 0.9, where 1 is the maximum; inactive means score below 0.9.
Labels: 1.0 for active, 0.0 for inactive

Compound: OCC(F)(F)C(F)(F)C(F)(F)C(F)(F)C(F)(F)C(F)(F)CO
Group Label: 0.0

Compound: O=C(O)CCC(F)(F)C(F)(F)C(F)(F)F
Group Label: 0.0

Compound: OCC(O)CC(F)(F)C(F)(F)C(F)(F)C(F)(F)C(F)(F)C(F)(F)C(F)(F)C(F)(F)F (stereo not drawn)
Group Label: 0.0

Compound: O=S(=O)(OCC(F)(F)F)C(F)(F)C(F)(F)C(F)(F)C(F)(F)F
Group Label: 0.0

Compound: CN(C(=O)C(F)(F)C(F)(F)C(F)(F)F)[Si](C)(C)C
Group Label: 0.0

Compound: Cc1cc(C)c(O)c(C(C)(C)C)c1
Group Label: 1.0

Compound: CCOC(=O)CC(=O)C(F)(F)C(F)(F)F
Group Label: 0.0

Compound: O=C(O)C(F)(F)C(F)(F)C(F)(F)C(F)(F)C(F)(F)C(F)(F)C(F)F
Group Label: 0.0

Compound: O=C(O)C(F)(F)C(F)(F)C(F)(F)OC(F)(F)F
Group Label: 0.0

Compound: NC(=O)C(F)(F)C(F)(F)C(F)(F)F
Group Label: 0.0

Compound: CNS(=O)(=O)C(F)(F)C(F)(F)C(F)(F)C(F)(F)C(F)(F)C(F)(F)C(F)(F)C(F)(F)F
Group Label: 0.0

Compound: O=C(O)CCC(F)(F)C(F)(F)C(F)(F)C(F)(F)C(F)(F)C(F)(F)C(F)(F)F
Group Label: 0.0

Compound: OCCCCC(F)(F)C(F)(F)C(F)(F)C(F)(F)F
Group Label: 0.0

Compound: NC(=O)C(F)(F)C(F)(F)C(F)(F)C(F)F
Group Label: 0.0

Compound: NCC(F)(F)C(F)(F)C(F)(F)C(F)(F)C(F)(F)C(F)(F)C(F)(F)C(F)(F)F
Group Label: 0.0

Compound: O=C(c1ccccc1)c1ccc(O)cc1O
Group Label: 0.0

Compound: CC(C)(C)c1cc(CCC(=O)NCCCCCCNC(=O)CCc2cc(C(C)(C)C)c(O)c(C(C)(C)C)c2)cc(C(C)(C)C)c1O
Group Label: 0.0

Compound: CCN(CC)c1ccc(N=Nc2ccccc2)cc1
Group Label: 1.0

Compound: CO[Si](C)(CCC(F)(F)C(F)(F)C(F)(F)C(F)(F)C(F)(F)C(F)(F)F)OC
Group Label: 0.0

Compound: Cc1cc(O)c(C(C)(C)C)cc1C(C)(C)C
Group Label: 1.0

Compound: CCOC(C=C(C)CCC=C(C)C)OCC
Group Label: 1.0

Compound: OCC(F)(F)C(F)(F)C(F)(F)CO
Group Label: 0.0

Compound: CCN(CC)c1ccc(C=O)cc1
Group Label: 0.0

Compound: FC(F)(F)C(F)(F)C(F)(F)CC1CO1 (stereo not drawn)
Group Label: 0.0

Compound: CCN(CC)c1ccc2c(c1)Oc1cc(N(CC)CC)ccc1C21OC(=O)c2ccccc21
Group Label: 1.0

Compound: O=S(=O)(O)CCC(F)(F)C(F)(F)C(F)(F)C(F)(F)C(F)(F)C(F)(F)C(F)(F)C(F)(F)F
Group Label: 0.0

Compound: COC(F)(C(F)F)C(F)(F)F (stereo not drawn)
Group Label: 0.0

Compound: CCN(CC)c1ccc(C=O)c(O)c1
Group Label: 1.0

Compound: C[C@]12CC[C@H]3C(=CCc4cc(O)ccc43)[C@@H]1CCC2=O
Group Label: 0.0

Compound: O=C(O)C(F)(F)C(F)(F)C(F)(F)C(=O)O
Group Label: 0.0

Compound: O=C(Cl)C(F)(F)C(F)(F)C(F)(F)C(F)(F)C(F)(F)C(F)(F)F
Group Label: 0.0

Compound: OC(O)C(F)(F)C(F)(F)F
Group Label: 0.0

Compound: O=C(O)C(F)(F)OC(F)(F)C(F)(F)OC(F)(F)C(F)(F)OC(F)(F)F
Group Label: 0.0

Compound: FC(F)(F)C(F)(F)C(F)(F)C(F)(F)C(F)(F)C(F)(F)CC[Si](Cl)(Cl)Cl
Group Label: 0.0

Compound: NCC(F)(F)C(F)(F)C(F)(F)C(F)(F)C(F)(F)C(F)(F)F
Group Label: 0.0

Compound: Cc1ccc(O)c(-n2nc3ccccc3n2)c1
Group Label: 0.0

Compound: OCC(O)CC(F)(F)C(F)(F)C(F)(F)C(F)(F)F (stereo not drawn)
Group Label: 0.0

Compound: O=C1c2c(O)ccc(Nc3ccc(CCO)cc3)c2C(=O)c2c([N+](=O)[O-])ccc(O)c21
Group Label: 1.0

---

# Read-out: Interferon-gamma inducible Protein 10 (IP10), CXCL10 (gene 3627)
# Assay Overview: BSK_KF3CT_IP10: BioMAP Diversity Plus: KF3CT Assay for Interferon-gamma inducible Protein 10 (IP10) Biomarker Activity (AID 2283068)
# Measurement Context: primary human keratinocytes with fibroblasts; actives raise or lower the signal
# Experimental: BSK_KF3CT is a cell-based, multiplexed-readout assay that uses keratinocytes and foreskin fibroblasts, a human skin primary cell co-culture, with measurements taken at 24 hours after chemical dosing in a 96-well plate.BSK_KF3CT_IP10 is an assay component measured in the BSK_KF3CT assay. It measures IP-10 antibody related to regulation of gene expression using ELISA technology.Data from the assay component BSK_KF3CT_IP10 was analyzed into 1 assay endpoint. […]
Activity calls are given as the source filed them. Rule for the calls: active = hit-call score of the fitted dose curve at least 0.9, where 1 is the maximum; inactive = score below 0.9.

Entry Smiles: OCCCCC(F)(F)C(F)(F)C(F)(F)C(F)(F)F
AC50: inactive
//
Entry Smiles: Cc1cc(O)c(C(C)(C)C)cc1C(C)(C)C
AC50: 3.63 µM (active)
//
Entry Smiles: NC(O)(C(F)(F)F)C(F)(F)F
AC50: inactive
//
Entry Smiles: O=C1C=CC(=O)N1c1ccc(Cc2ccc(N3C(=O)C=CC3=O)cc2)cc1
AC50: 6.7 µM (active)
//
Entry Smiles: CCN(CC)c1ccc2c(c1)Oc1cc(N(CC)CC)ccc1C21OC(=O)c2ccccc21
AC50: inactive
//
Entry Smiles: CCN(CC)c1ccc(C=O)c(O)c1
AC50: inactive

---

# Read-out: CD40, CD40 (gene 958)
# Assay Overview: BSK_LPS_CD40: BioMAP Diversity Plus: LPS Assay for CD40 Biomarker Activity (AID 2283076)
# Measurement Context: primary human HUVEC with PBMC; actives raise or lower the signal
Active and inactive are the calls of the source. Rule for the calls: active = hit-call score of the fitted dose curve at least 0.9, where 1 is the maximum; inactive = score below 0.9.
Labels: t = active, f = inactive

Compound: FC(F)(F)C(F)(F)C(F)(F)CC1CO1 (stereo unspecified)
Group Label: f
--
Compound: O=C1c2c(O)ccc(Nc3ccc(CCO)cc3)c2C(=O)c2c([N+](=O)[O-])ccc(O)c21
Group Label: t
--
Compound: C[C@]12CC[C@H]3C(=CCc4cc(O)ccc43)[C@@H]1CCC2=O
Group Label: f
--
Compound: OCC(F)(F)C(F)(F)C(F)(F)C(F)(F)C(F)(F)C(F)(F)C(F)(F)C(F)(F)CO
Group Label: f
--
Compound: CCN(CCO)S(=O)(=O)C(F)(F)C(F)(F)C(F)(F)C(F)(F)C(F)(F)C(F)(F)C(F)(F)C(F)(F)F
Group Label: f
--
Compound: CCN(CC)c1ccc(N=Nc2ccccc2)cc1
Group Label: t
--
Compound: O=C(F)C1(F)C(F)(F)C(F)(F)C(F)(F)C(F)(F)C1(F)F
Group Label: f
--
Compound: O=C(O)CCC(F)(F)C(F)(F)C(F)(F)F
Group Label: f
--
Compound: COC(F)(C(F)F)C(F)(F)F (stereo unspecified)
Group Label: f
--
Compound: O=C(O)CCC(F)(F)C(F)(F)C(F)(F)C(F)(F)C(F)(F)C(F)(F)C(F)(F)F
Group Label: f
--
Compound: CN(C(=O)C(F)(F)C(F)(F)C(F)(F)F)[Si](C)(C)C
Group Label: f

---

# Assay Overview: Tanguay_ZF_120hpf_ANY: Oregon State University Tanguay Lab 120 Hour Post-fertilization zebrafish Assay for Any Mortality and Malformation (AID 2284404)
Calls of active or inactive are those of the source. The calls were made as follows: active = hit-call score of the fitted dose curve at least 0.9, where 1 is the maximum; inactive = score below 0.9.
Readout Label: outcome

Compound: O=S(=O)(O)CCC(F)(F)C(F)(F)C(F)(F)C(F)(F)F
Readout Label: outcome
Experimental Result: inactive
--
Compound: OCC(O)CC(F)(F)C(F)(F)C(F)(F)C(F)(F)F (stereo not drawn)
Readout Label: outcome
Experimental Result: inactive
--
Compound: O=C(O)C(F)(F)C(F)(F)C(F)(F)OC(F)(C(F)(F)F)C(F)(F)F
Readout Label: outcome
Experimental Result: inactive

---

# Assay Overview: CCTE_Padilla_ZF_Score.Tail: CCTE's 144 Hour Post-fertilization zebrafish Assay Score for Tail Malformation, Padilla Lab (AID 2284414)
# Experimental: CCTE_Padilla_ZF_Phenotype_Score is a whole embryo, multiplexed assay using zebrafish ova exposed for 144 hours post fertilization on a 96-well plate.CCTE_Padilla_ZF_Score.Tail is one of one assay component(s) measured or calculated from the CCTE_Padilla_ZF_Phenotype_Score assay. […] This assay endpoint, CCTE_Padilla_ZF_Score.Tail, was analyzed in the positive analysis fitting direction relative to DMSO as the negative control and baseline of activity. […]
Activity calls are given as the source filed them. The calls were made as follows: active = hit-call score of the fitted dose curve at least 0.9, where 1 is the maximum; inactive = score below 0.9.

Compound: CN(C(=O)C(F)(F)C(F)(F)C(F)(F)F)[Si](C)(C)C
outcome: inactive
//
Compound: FC(F)(F)C(F)(F)C(F)(F)C(F)(F)C(F)(F)C(F)(F)C(F)(F)CCI
outcome: inactive
//
Compound: NC(=O)C(F)(F)C(F)(F)C(F)(F)C(F)(F)C(F)(F)C(F)(F)C(F)(F)F
outcome: inactive
//
Compound: O=C(Cl)C(F)(F)C(F)(F)C(F)(F)C(F)(F)C(F)(F)C(F)(F)C(F)(F)F
outcome: inactive
//
Compound: COC(F)(C(F)F)C(F)(F)F (stereo not given)
outcome: inactive
//
Compound: NCC(F)(F)C(F)(F)C(F)(F)C(F)(F)C(F)(F)C(F)(F)C(F)(F)C(F)(F)F
outcome: inactive
//
Compound: O=C(F)C1(F)C(F)(F)C(F)(F)C(F)(F)C(F)(F)C1(F)F
outcome: inactive
//
Compound: OCCCCC(F)(F)C(F)(F)C(F)(F)C(F)(F)F
outcome: inactive
//
Compound: O=S(=O)(O)CCC(F)(F)C(F)(F)C(F)(F)C(F)(F)C(F)(F)C(F)(F)C(F)(F)C(F)(F)F
outcome: inactive
//
Compound: O=S(=O)(OCC(F)(F)F)C(F)(F)C(F)(F)C(F)(F)C(F)(F)F
outcome: inactive
